Parameter: seed-corrected z-score. Scope: all listed entries.
# method: Identification of proteins required for the processing of the EWS-FLI1 nascent transcript;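 note: robust z of luciferase light less the median z of siRNAs with the same seed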
# cond: TC32 Ewing sarcoma NR0B1-luc vs CMV-luc, 48 h; screened at 20 nM (by protocol)
Whole data set: some 59,000 sequences, median the read-out near -0.00055, cut for the lowest 2% near -2. The entries come from a sample that favours the lowest values as a whole.
Lab note: record just the number, no unit beside it.

Solved entries (count: 5):
UUAGCAUCCACGAUACCAC against CFAP47    0.706
UAGGCGAUGAAGAGCGUGC against MC1R    0.184
UGAGUACCCAUGGUUGGAG against KY    -1.24
UACAGCUCCGAAAAACUCC against SIPA1    -1.18
ACUGUAUAGAUUGUGAACC against KDM3B    1.03

For UUCCAAGACAGAAAUGAGG against DNHD1 the sequence record lists seed-corrected z-score as 0.456

For UUGCUAUCCAUGUAUAGCC against SLITRK1 the sequence record lists seed-corrected z-score as 0.475

For AUCGUUCACGUCUUGAUCC against CPSF6 the sequence record lists seed-corrected z-score as -0.744

For UCUCUGACAAGUGUGAAGC against DKK1 the sequence record lists seed-corrected z-score as -0.0537

====

# method: Identification of proteins required for the processing of the EWS-FLI1 nascent transcript;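 note: robust z of luciferase light less the median z of siRNAs with the same seed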
# cond: TC32 Ewing sarcoma NR0B1-luc vs CMV-luc, 48 h; screened at 20 nM (by protocol)
Whole data set: some 59,000 sequences, median the read-out near -0.00055, cut for the lowest 2% near -2. Shown is part of a subset that was picked to be rich in the lowest values.
result-type: seed-corrected z-score
Lab note: record just the number, no unit beside it.

Solved entries (count: 4):
UUCAUCUCCACAAUCACCG against MAG    -0.753
AAAAGUAUUACAAAAAGUG against MYOD1    -0.532
UACUUUGCGACCAUUUAGG against PABPC3    -1.3
UAUCUAAUUGAUGACAUGC against ETAA1    0.0808

For UCAGGCUCAACCACCAGCA against ESRRA the sequence record lists seed-corrected z-score as -1.16

For AAACUGGUCAUCAUCCACC against SIKE1 the sequence record lists seed-corrected z-score as 0.42

For UUCCUUGGAGCUGGGAUCU against PSORS1C1 the sequence record lists seed-corrected z-score as -1.32

For UUUCGUAAUAUGCGGCCUC against ASPA the sequence record lists seed-corrected z-score as -0.032

====

# method: Identification of proteins required for the processing of the EWS-FLI1 nascent transcript;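 note: robust z of luciferase light less the median z of siRNAs with the same seed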
# cond: TC32 Ewing sarcoma NR0B1-luc vs CMV-luc, 48 h; screened at 20 nM (by protocol)
The full ranking holds about 59,000 sequences; the median of the read-out is about -0.00055, and the lowest 2% start at about -2. Only a selection was taken, and the lowest values are over-represented in it overall.
Parameter: seed-corrected z-score. Scope: all listed entries.
Lab note: record just the number, no unit beside it.

Solved entries (count: 3):
UAUCUAAUUUUGGAAUCUC against VRK1    -0.281
UGGGAUGAGAGACUCCUCC against C6orf25    -0.121
UCAGAAAUGACCUUGUUGC against LOC729187    1.39

For UGCUUUUGGAGUGCUAUGG against ANKLE1 the sequence record lists seed-corrected z-score as -2.74

For UACCAGCUCACUGACAUGG against OR8B4 the sequence record lists seed-corrected z-score as 0.0124

For AAAGUUGCUAUGAAGCGAG against PSMA8 the sequence record lists seed-corrected z-score as -2.62

For UAUUUUGCAAUAUCUUCUC against SLU7 the sequence record lists seed-corrected z-score as -0.229

For AAAUAGGCAAGGAAUCUUG against LARP1BP1 the sequence record lists seed-corrected z-score as -1.48

For GAGCCGAACACCACUAUGG against SYNGR1 the sequence record lists seed-corrected z-score as -0.617

====

# method: Identification of proteins required for the processing of the EWS-FLI1 nascent transcript;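 note: robust z of luciferase light less the median z of siRNAs with the same seed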
# cond: TC32 Ewing sarcoma NR0B1-luc vs CMV-luc, 48 h; screened at 20 nM (by protocol)
# Experimental: Ewing sarcoma (ES) cells depend on the EWS-FLI1 fusion transcription factor for cell survival. […] Luciferase activity was assessed 48 hours post siRNA-transfection. Twenty microl of serum-free media containing Lipofectamine RNAiMax (0.05 microl) was added to wells containing siRNA (0.8 pmol). […] Luciferase expression was measured using OneGlo (Promega, Madison, WI). […]
In all, about 59,000 sequences were measured (the read-out: median about -0.00055, lowest 2% from about -2 on). The full list was thinned out, with the lowest values kept by preference.
result-type: seed-corrected z-score
Lab note: record just the number, no unit beside it.

AAGACAAUAAUGUUGCUGC against CLDN17    -0.436

For UGUAGAAUGAGUAGGCGGC against NMT2 the sequence record lists seed-corrected z-score as -0.0232

For UUAGGGAUGAACCAAGGCA against ATP6V0E1 the sequence record lists seed-corrected z-score as 0.122

For AAAGUUUCACUCUUUCUGG against TPT1P8 the sequence record lists seed-corrected z-score as -0.645

For UAAUAUCCGGUAAGAAUCC against DDB2 the sequence record lists seed-corrected z-score as -0.365

For UGUUCUAUGAGGCAAGAUG against ZGRF1 the sequence record lists seed-corrected z-score as 0.286

For UCUAAUUCUGCGGCUUUUC against SCAMP1 the sequence record lists seed-corrected z-score as -0.0112

For UUUUUGGUCACCGGUUGCC against GRK5 the sequence record lists seed-corrected z-score as -0.48

For UUCAGACUUGUUUUCACCC against POU1F1 the sequence record lists seed-corrected z-score as -0.00706

====

# method: Identification of proteins required for the processing of the EWS-FLI1 nascent transcript;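 note: robust z of luciferase light less the median z of siRNAs with the same seed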
# cond: TC32 Ewing sarcoma NR0B1-luc vs CMV-luc, 48 h; screened at 20 nM (by protocol)
The full ranking holds about 59,000 sequences; the median of the read-out is about -0.00055, and the lowest 2% start at about -2. The sample as a whole holds a higher share of the lowest values than the screen did.
result-type: seed-corrected z-score
Lab note: record just the number, no unit beside it.

AACUCAUUCCCUUCUUUCC against ZMAT3    -0.582

For UUUCAUCUCAUCGAGGAAG against LDOC1 the sequence record lists seed-corrected z-score as -2.02

For UGAGUUUCCGUACCACACC against PRDM12 the sequence record lists seed-corrected z-score as -2.92

For UCCCGUUCAAUCUCCCACC against RNF113B the sequence record lists seed-corrected z-score as -0.595

For UUUGCGAAACUCCAAGUCC against LMNB1 the sequence record lists seed-corrected z-score as -0.159

For AUCGUGAAGAGAUACUCCG against MAPKBP1 the sequence record lists seed-corrected z-score as 0.318

For AGUCGAAUAACAUAUAUCC against NBPF14 the sequence record lists seed-corrected z-score as -2.13

For AAAGGUUCACCACAUAGCC against SORL1 the sequence record lists seed-corrected z-score as -3.01

For AACCGUUCCAUAUCAUCUC against BEX5 the sequence record lists seed-corrected z-score as 0.658

For UUUAUUUAGGGAGCUCCAG against ETHE1 the sequence record lists seed-corrected z-score as 0.835

For UUCUGGAUGUGGUAGGGCC against ACSBG1 the sequence record lists seed-corrected z-score as 0.963

For AAAUGGUCCAGAAUCCAGC against FOXN2 the sequence record lists seed-corrected z-score as 0.634

For UAAGCACACAUUUACUUGG against HIST1H2BG the sequence record lists seed-corrected z-score as 0.782

For UGAGAUUUCUAUGUAACAC against SS18L2 the sequence record lists seed-corrected z-score as 0.356

For UCAGUGACAACAUCACGGC against PPP2R5D the sequence record lists seed-corrected z-score as 0.201

For UUGGUGUCCGGAGAGGUGU against IRF3 the sequence record lists seed-corrected z-score as -0.0987

For UUCGAACUAAGGCACGAGC against ABCB5 the sequence record lists seed-corrected z-score as -0.392

For UGUAGUACGCUCUUGUUCU against GOLGA8EP the sequence record lists seed-corrected z-score as -0.41

For UACAUGGUAAUAACUUUUC against MARCKS the sequence record lists seed-corrected z-score as -0.217

====

# method: Identification of proteins required for the processing of the EWS-FLI1 nascent transcript;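 note: robust z of luciferase light less the median z of siRNAs with the same seed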
# cond: TC32 Ewing sarcoma NR0B1-luc vs CMV-luc (EWS-FLI1 target promoter against control promoter), 48 h; screened at 20 nM (by protocol)
Over roughly 59,000 sequences, the read-out has its median near -0.00055; the lowest 2% begin near -2. Many of the other results were omitted from the sample, so the lowest values are more common in it than they were.
// classify: if (seed-corrected z-score < -0.01) class 1 else class 0

Consider the worked cases shown below.
UUAUCUAUACAAAGCAGAC against KLRC3    class 1
AACUGAGUUGUAGAGCUGC against IL12RB1    class 1
AACGAUUUUAUCCAAAAUG against FBXO25    class 0
UACUGCUAGAUUGAGAUCC against KDM5D    class 1
UCUCCGUCCACAUUUGUUG against NTRK1    class 0
UUUGCCUAGACUAUGCUUG against PPARGC1B    class 1

Q) Item AAAGAUUAAGGUACCAUAG against OR5J2 : seed-corrected z-score beneath -0.01, strictly?
A) class 0

Q) Item UGGGCUUGUAGAAGUGUCU against DGAT1 : seed-corrected z-score beneath -0.01, strictly?
A) class 1

Q) Item UUGUUGGACAGUUGAAUCG against SEC62 : seed-corrected z-score beneath -0.01, strictly?
A) class 0

Source of measurements: PubChem BioAssay AID1159506
